# TRF signal values compiled below
Target of assay: β-galactosidase
Sequence (P00722 2-1024): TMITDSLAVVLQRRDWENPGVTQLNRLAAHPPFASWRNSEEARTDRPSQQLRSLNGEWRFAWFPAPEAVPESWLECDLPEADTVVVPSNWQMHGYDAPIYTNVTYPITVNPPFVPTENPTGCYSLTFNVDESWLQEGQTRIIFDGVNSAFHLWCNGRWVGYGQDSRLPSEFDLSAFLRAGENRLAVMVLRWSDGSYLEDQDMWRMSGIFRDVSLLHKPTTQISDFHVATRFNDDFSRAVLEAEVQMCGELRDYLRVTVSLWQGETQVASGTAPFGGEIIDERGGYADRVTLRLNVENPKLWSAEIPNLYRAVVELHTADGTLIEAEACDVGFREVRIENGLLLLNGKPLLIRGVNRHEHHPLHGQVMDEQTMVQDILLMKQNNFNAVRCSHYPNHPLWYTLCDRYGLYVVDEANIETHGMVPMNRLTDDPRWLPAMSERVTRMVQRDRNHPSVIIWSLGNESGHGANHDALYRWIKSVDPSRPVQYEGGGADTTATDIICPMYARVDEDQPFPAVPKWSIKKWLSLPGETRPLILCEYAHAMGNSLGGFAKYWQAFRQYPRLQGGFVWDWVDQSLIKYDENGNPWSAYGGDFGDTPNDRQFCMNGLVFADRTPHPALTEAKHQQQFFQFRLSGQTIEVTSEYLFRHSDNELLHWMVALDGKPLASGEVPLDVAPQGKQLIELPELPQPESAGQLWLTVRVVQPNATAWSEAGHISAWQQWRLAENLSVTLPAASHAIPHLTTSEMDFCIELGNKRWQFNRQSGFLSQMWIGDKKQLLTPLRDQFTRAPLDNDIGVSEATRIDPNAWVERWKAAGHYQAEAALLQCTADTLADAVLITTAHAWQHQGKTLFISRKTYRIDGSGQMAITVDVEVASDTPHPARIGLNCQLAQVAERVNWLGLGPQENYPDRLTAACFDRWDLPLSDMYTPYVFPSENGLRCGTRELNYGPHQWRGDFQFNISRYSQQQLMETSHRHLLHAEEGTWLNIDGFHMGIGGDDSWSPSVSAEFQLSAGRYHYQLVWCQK
Experiment description: monoclonal phage TRF
The answer should be a number; do not append a unit.

>>> measured_value("KB_A12_B-gal_F07 (scFv, V domains shown) VH: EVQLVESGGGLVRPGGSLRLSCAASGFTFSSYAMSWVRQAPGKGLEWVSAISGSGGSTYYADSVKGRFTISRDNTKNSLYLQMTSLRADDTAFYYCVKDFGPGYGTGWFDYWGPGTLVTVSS VL: AVNWYQQLPGKAPKLLIYAAGRCRTTANVRRHCKQDSDCLAGCVCGPNGFCGANSGVSDRFSAAKSGTSASLAINGLRSEDEADYYCAAWDDSLNGYVFGTGTKLTVLG")
246000
>>> measured_value("KB_A12_B-gal_G05 (scFv, V domains shown) VH: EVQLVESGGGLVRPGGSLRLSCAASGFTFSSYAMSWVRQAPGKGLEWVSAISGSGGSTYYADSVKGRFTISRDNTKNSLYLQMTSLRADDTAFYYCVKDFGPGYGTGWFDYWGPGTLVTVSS VL: AVNWYQQLPGKAPKLLIYAAGRCLDTVNLRRRCKQDSDCLAGCVCGPNGFCGANSGVSDRFSAAKSGTSASLAINGLRSEDEADYYCAAWDDSLNGYVFGTGTKLTVLG")
529000
>>> measured_value("KB_A12_B-gal_H03 (scFv, V domains shown) VH: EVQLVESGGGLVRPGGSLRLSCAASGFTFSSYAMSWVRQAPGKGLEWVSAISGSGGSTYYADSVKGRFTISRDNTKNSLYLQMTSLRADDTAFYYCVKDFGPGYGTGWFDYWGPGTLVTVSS VL: AVNWYQQLPGKAPKLLIYAAGRCNQTMSIRRPCKQDSDCLAGCVCGPNGFCGANSGVSDRFSAAKSGTSASLAINGLRSEDEADYYCAAWDDSLNGYVFGTGTKLTVLG")
518000
>>> measured_value("KB_A12_B-gal_H07 (scFv, V domains shown) VH: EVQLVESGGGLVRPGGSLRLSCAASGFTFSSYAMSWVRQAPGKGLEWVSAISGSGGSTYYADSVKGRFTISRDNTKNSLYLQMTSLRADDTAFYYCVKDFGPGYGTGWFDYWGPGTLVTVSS VL: AVNWYQQLPGKAPKLLIYAAGRCTQTALIRRRCKQDSDCLAGCVCGPNGFCGANSGVSDRFSAAKSGTSASLAINGLRSEDEADYYCAAWDDSLNGYVFGTGTKLTVLG")
62000
>>> measured_value("KB_A12_B-gal_F09 (scFv, V domains shown) VH: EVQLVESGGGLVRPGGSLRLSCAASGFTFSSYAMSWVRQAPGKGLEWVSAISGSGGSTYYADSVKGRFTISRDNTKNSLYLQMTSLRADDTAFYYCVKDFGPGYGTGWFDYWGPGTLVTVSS VL: AVNWYQQLPGKAPKLLIYAAGRCIATSHIRRHCKQDSDCLAGCVCGPNGFCGANSGVSDRFSAAKSGTSASLAINGLRSEDEADYYCAAWDDSLNGYVFGTGTKLTVLG")
258000

Proceeding to the next binder to report its TRF signal.
Which TRF signal reading was recorded for the binder KB_A12_B-gal_H02 (scFv, V domains shown) VH: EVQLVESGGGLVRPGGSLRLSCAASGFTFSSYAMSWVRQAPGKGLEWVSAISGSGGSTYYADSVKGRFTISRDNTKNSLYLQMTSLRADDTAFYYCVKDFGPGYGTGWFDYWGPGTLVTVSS VL: AVNWYQQLPGKAPKLLIYAAGRCEQTSVIRRHCKQDSDCLAGCVCGPNGFCGANSGVSDRFSAAKSGTSASLAINGLRSEDEADYYCAAWDDSLNGYVFGTGTKLTVLG ?
501000
